# experimental system: T1, IL-10R2-Fc/His (UniProt Q08334 20-220, limits assumed)
# T1 sequence (looked up): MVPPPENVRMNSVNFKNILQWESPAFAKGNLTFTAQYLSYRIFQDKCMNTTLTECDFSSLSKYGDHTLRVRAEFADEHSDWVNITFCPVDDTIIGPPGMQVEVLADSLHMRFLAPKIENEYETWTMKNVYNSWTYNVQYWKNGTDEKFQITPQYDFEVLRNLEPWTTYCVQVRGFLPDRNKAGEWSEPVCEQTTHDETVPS
# assay summary: ELISA, IL-10R2-Fc/His coated
measured property: Decreased fold of binding to ligand after Conjugating with S48 (fold)
Answer format: numeric, fold implied, no suffix.

input: For the binder IL-10 Ala89Cys-S48 (ligand, human, UniProt P22301 19-178, looked up, S48 on Cys 89, mature) SPGQGTQSENSCTHFPGNLPNMLRDLRDAFSRVKTFFQMKDQLDNLLLKESLLEDFKGYLGCQALSEMIQFYLEEVMPQAENQDPDIKCHVNSLGENLKTLRLRLRRCHRFLPCENKSKAVEQVKNAFNKLQEKGIYKAMSEFDIFINYIEAYMTMKIRN , give its reported Decreased fold of binding to ligand after Conjugating with S48.
output: 5

input: For the binder IL-10 His90Cys-S48 (ligand, human, UniProt P22301 19-178, looked up, S48 on Cys 90, mature) SPGQGTQSENSCTHFPGNLPNMLRDLRDAFSRVKTFFQMKDQLDNLLLKESLLEDFKGYLGCQALSEMIQFYLEEVMPQAENQDPDIKACVNSLGENLKTLRLRLRRCHRFLPCENKSKAVEQVKNAFNKLQEKGIYKAMSEFDIFINYIEAYMTMKIRN , give its reported Decreased fold of binding to ligand after Conjugating with S48.
output: 7

input: For the binder IL-10 Thr35Cys-S48 (ligand, human, UniProt P22301 19-178, looked up, S48 on Cys 35, mature) SPGQGTQSENSCTHFPGNLPNMLRDLRDAFSRVKCFFQMKDQLDNLLLKESLLEDFKGYLGCQALSEMIQFYLEEVMPQAENQDPDIKAHVNSLGENLKTLRLRLRRCHRFLPCENKSKAVEQVKNAFNKLQEKGIYKAMSEFDIFINYIEAYMTMKIRN , give its reported Decreased fold of binding to ligand after Conjugating with S48.
output: 6

input: For the binder IL-10 Leu103Cys-S48 (ligand, human, UniProt P22301 19-178, looked up, S48 on Cys 103, mature) SPGQGTQSENSCTHFPGNLPNMLRDLRDAFSRVKTFFQMKDQLDNLLLKESLLEDFKGYLGCQALSEMIQFYLEEVMPQAENQDPDIKAHVNSLGENLKTLRCRLRRCHRFLPCENKSKAVEQVKNAFNKLQEKGIYKAMSEFDIFINYIEAYMTMKIRN , give its reported Decreased fold of binding to ligand after Conjugating with S48.
output: 3

input: For the binder IL-10 Met22Cys-S48 (ligand, human, UniProt P22301 19-178, looked up, S48 on Cys 22, mature) SPGQGTQSENSCTHFPGNLPNCLRDLRDAFSRVKTFFQMKDQLDNLLLKESLLEDFKGYLGCQALSEMIQFYLEEVMPQAENQDPDIKAHVNSLGENLKTLRLRLRRCHRFLPCENKSKAVEQVKNAFNKLQEKGIYKAMSEFDIFINYIEAYMTMKIRN , give its reported Decreased fold of binding to ligand after Conjugating with S48.
output: 6

input: For the binder IL-10 Val33Cys-S48 (ligand, human, UniProt P22301 19-178, looked up, S48 on Cys 33, mature) SPGQGTQSENSCTHFPGNLPNMLRDLRDAFSRCKTFFQMKDQLDNLLLKESLLEDFKGYLGCQALSEMIQFYLEEVMPQAENQDPDIKAHVNSLGENLKTLRLRLRRCHRFLPCENKSKAVEQVKNAFNKLQEKGIYKAMSEFDIFINYIEAYMTMKIRN , give its reported Decreased fold of binding to ligand after Conjugating with S48.
output: 3

input: For the binder IL-10 Asn126Cys-S48 (ligand, human, UniProt P22301 19-178, looked up, S48 on Cys 126, mature) SPGQGTQSENSCTHFPGNLPNMLRDLRDAFSRVKTFFQMKDQLDNLLLKESLLEDFKGYLGCQALSEMIQFYLEEVMPQAENQDPDIKAHVNSLGENLKTLRLRLRRCHRFLPCENKSKAVEQVKCAFNKLQEKGIYKAMSEFDIFINYIEAYMTMKIRN , give its reported Decreased fold of binding to ligand after Conjugating with S48.
output: 3
